// provenance: the nanobody polyreactivity screen of Harvey et al. (2022)

ASSAY_METHOD_TEXT: yeast display, Sf9 membrane polyspecificity reagent, FACS + sequencing; frameworks hold sequencing errors
OBSERVED_PROPERTY: polyreactivity (PSR sort gate)

SEQUENCE_CONTENT: QVQLVESGGGLVQAGGSLRLSCAASGYTLSVNAMGWYRQAPGKERELVATIDFGGGSTYYADSVKGRFTISRDNAKNTVYLKMNSLKPEDTAVYYCNTEWTSLSKSSLGGRYDHWGQGTQVTVSS
polyreactivity (PSR sort gate): low polyreactivity

SEQUENCE_CONTENT: QVQLVESGGGLVQAGGSLRLSCAASGSTFGRNAMGWYRQAPGKERELVATINWNGGRTYYADSVKGRFTISRDNAKNSVYLQMNSLKPEDTAVYYCNATKTGPATVRYYYWGQGTQVTVSS
polyreactivity (PSR sort gate): high polyreactivity

SEQUENCE_CONTENT: QVQLVETGGGLVQAGGSLRLSCAASGITFYYYAMGWYRQAPGKERELVAAINSGGITNYADSVKGRFTLSRDIAKKTVYLQMNSLKPEDTAVYYCAASSGFRYRYGYWGQGTQVTVSS
polyreactivity (PSR sort gate): high polyreactivity

SEQUENCE_CONTENT: QVQLVESGGGLVQAGGSLRLSCAASGFTFYYYAMGWYRQAPGKERELVAAISDSGGITSYADSVKGRFTISRDNAKNTVYLQMNSLKPEDTAVYYCAAEWSQWPYDYWGQGTQVTVSS
polyreactivity (PSR sort gate): low polyreactivity

SEQUENCE_CONTENT: QVQLVESGGGLVQAGGTLRLSCAASGSTFGVYAMGWYRQAPGKERELVAAIDNSGDDTYYADSVKGRFTISRDNAKNTVYLQMNSLKPEDTAVYYCAADFWDGRSTLNFWGQGTQVTVSS
polyreactivity (PSR sort gate): high polyreactivity

SEQUENCE_CONTENT: QVQLVESGGGLVQAGGSLRLSCAASGSIFPHYAMGWSRQAPGKEREFVATISGSTGRTYYADSVKGRFTISRDNAKNTVYLQMNSLKPEDTAVYYCATSVGYYLPPIKYDYWGQGTQVTVSS
polyreactivity (PSR sort gate): low polyreactivity

SEQUENCE_CONTENT: QVQLVESGGGLVQAGGSLRLICAASGRTFTLNVMGWYRQAPGKETEFVATITWGGGRTYYADSVKGRFTISRDNAKNTVYLQMNSLKPVDTAVYYCAGQLAKTIRGRGYNSWGQGTQVTVSS
polyreactivity (PSR sort gate): low polyreactivity

SEQUENCE_CONTENT: QVQLVESGGGLVQAGGSLRLSCAASGRTFIYNTMGGYRQAPGKERELVAAITGNGGSTYYADSVKGRFTISRDYEKNTVYFQMNSLKPEDTAVYYCNAVGFDQPRYYYWGQGTQVTVSS
polyreactivity (PSR sort gate): high polyreactivity

SEQUENCE_CONTENT: QVQLVESGGGLVQAGGSLRLSCAASGSTFSQYAMGWYRQAPWKERELVAAITSTGGSTYYADSVKGRFTISRDNAKNTVYLQMNSLKPEDTAVYYCYPYIRDPKYNYWGQATQVTVSS
polyreactivity (PSR sort gate): low polyreactivity

SEQUENCE_CONTENT: QVQLVESGGGLVQAGGILRLSCAASGSNFWTNAMGWYRQAPGKERELVARISPGGSTNYADSVKGRFTISRDNAKNTVYLQMNSLKPEDTAVYYCAAQRGYVYGYDYWGQGTQVTVSS
polyreactivity (PSR sort gate): low polyreactivity

Provide the reported polyreactivity (PSR sort gate) of each entry below, same order.
1. QVQLVESGGGLVQAGGSLRLSCAASGLTFVVYAMGWYRQAPGKERELVASITSSGGRTYYADSVKGRFTISRDNAKNTVYLQMNSLKPEDTAVYYCNKYTWWLGSVDYWGQGTQVTVSS
2. QVQLVESGGGLVQAGGSLRLSCAASGIIFGRYAMGWYRQAPGKERELVAVINWSGDSTYYADSVKGRFTISRDNAKNTVYLQMNSLKPEDTAVYYCAALNYKGRYRQYYWGQGTQVTVSS
3. QVQLVESGGGLVQAGGSLRLSCAASGRTFSRYAMGWYRQAPGKERELVASIRSGGSTNYADSVKGRFTISRDNAKNTVYIQMNSLKPEDTAVYYCANVGRYWNPVYNSFYNFDYWGQGTQVTVSS
4. QVQLVESGGGLVQAGGSLRFSCAASGRNFVVYAMGWYRQAPRKEREFVAAITWSGDSTTYYADSVKGRFTISRDNAMTTFYLQLKSLKPDDTAVYYCASEGDGANGGAYDYWGQGTQVNVSS
5. QVQLVESGGGLVQEGGSLRLSCAASGRTLRYNDMGWYRQAPGKERELVAAISTRGGSTYYADSVKGRFTISRDNAKNTVYLQMYSLKPEDTAVYYCAVTPRIPGHFEDYYWGQGTQVTVSS

Result:
1: high polyreactivity; 2: high polyreactivity; 3: high polyreactivity; 4: low polyreactivity; 5: low polyreactivity

Provide the reported polyreactivity (PSR sort gate) of each entry below, same order.
1. QVQLVESGRGLFQAGGSLRLSCAASGIIFKSYAMGWYRQAPGKEREFVAAISWSGGRTTYADSLKGRFTISRDNAKNTVYLPMNSLKPEDTAVYYCAAAARGKFYYWGQGTQVTVSS
2. QVQLVESGRGLVQAGGSLRLSCAASGRIFTTDVMGWDRQAPGKERELFAAISARGSTYYADYVKWRFTISRDNAKNTVYLHMNSLKPEDTAVYYFAKKGWSSHERAWYIYDYWGQGTQVTVSS

Result:
1: high polyreactivity; 2: low polyreactivity

====

ASSAY_METHOD_TEXT: yeast display, Sf9 membrane polyspecificity reagent, FACS + sequencing; frameworks hold sequencing errors
OBSERVED_PROPERTY: polyreactivity (PSR sort gate)

SEQUENCE_CONTENT: QVQLVESGGGLVQAGGSLRLSCAASGSIFRGYAMGWYRQAPGKERELVAAINTSGGRTYYADSVKGRFTISRDNAKNTVYLQMNSLKPEDTAVYYCATEYYQAKREDYWGQGTQVTVSS
OBSERVED_PROPERTY: polyreactivity (PSR sort gate)
EXPERIMENTAL_VALUE: high polyreactivity
//
SEQUENCE_CONTENT: QVQLVESGGGLVQAGGSLRLSCAASGRIFQYYAMGWYRQAPGKERELVAAISSSGGSTYYADSVKGRFTISRDNAKNTVYLQMNSLKPEDTAVYYCNADRNARQNRRDYWGQGTQVTVSS
OBSERVED_PROPERTY: polyreactivity (PSR sort gate)
EXPERIMENTAL_VALUE: high polyreactivity
//
SEQUENCE_CONTENT: QGQLVESGGGLVQAGGSLRLSCAASGSIFIGNAMGWYRQAPGKERELVAAITGRGGRTYYADSVKGRFSISRDNAKNTVYLQMNSLKPVDTAVYDCNARSGSSYSGYYYWGQGTQVTVSS
OBSERVED_PROPERTY: polyreactivity (PSR sort gate)
EXPERIMENTAL_VALUE: high polyreactivity
//
SEQUENCE_CONTENT: QVQLVESGGGLVQAGGSLRLSCAASGSIFGGYAMGWYRQAPGKERELVATSYADSVKGRFTISRDNAKNTVYLQMNSLKPEDTAVYYCAADPPLEGGHGYNYWGQGTQVTVSS
OBSERVED_PROPERTY: polyreactivity (PSR sort gate)
EXPERIMENTAL_VALUE: low polyreactivity
//
SEQUENCE_CONTENT: QVQLVESGGGLLQAGGSLRISCAASGRTLFVYDMGWYRQAPGKERDLVAAITGDGSTNYADSVKGRFTISRDNAKNTVYLQMNSLKPEDPAVYYCNAGDRIGFWNTVEYNYWGQGTQVTVSS
OBSERVED_PROPERTY: polyreactivity (PSR sort gate)
EXPERIMENTAL_VALUE: low polyreactivity
//
SEQUENCE_CONTENT: QVQLVESGGGLVQAGGSLRLSCAASGYIFIWYDMGWYRQAPGKERELVAAISGSGGSTYYADSVKGRFTISRDNAKNTVYLQMNSLKPEDTAVYYCAAYVPRGNSEVIAMDYWGQGTQVTVSS
OBSERVED_PROPERTY: polyreactivity (PSR sort gate)
EXPERIMENTAL_VALUE: low polyreactivity

Provide the reported polyreactivity (PSR sort gate) of each entry below, same order.
1. QVQLVESGGGLVQAGGSLRLSSAASGSTFVNYVMGWYRQAPGKERELVAAISRRGTSTSYADSVKGRFTISRDNAKNTVYLQMNSLKPVDTAVYYCITLRQLGRPFYYWGQGTQVTVSS
2. QVQLEESRGGLVQAGGSLRLSYPASGRTYVTYAMGWYRQAPGKERELVAAITSGGSTNYADSVKGRFTISRDNAKNTVYLQMNSLKPEDTAVYYCAKAYLWYKGIFDYWGQGTQVTVSS
3. QVQLVESGGGLVQAGGSLRLSCAASGSIIDLNAMGWYRKAHGKERELVAAISSGGITYYADSVKGRFTISRDNAKNTVYLHMNSLKPEDTAVYYCAARYNHYFSLYDYWGQGTQVTVSS
4. QVQLVESGGALVQAGGSLRISCAASGLIIVRKAMGLYRQAPGKERELVAAIRWSGGSTYYADSVKGRFTISRDNGNNTVFLQMNRLKPEDTSVYYCAATGYGFDMDYWGQGTQVNVSS
5. QVQLVESGGGLVQAGGSLRLSCAASGSIFAVYAMGWYRQAPGKERELVASISRTGTTNYADSVKGRFTISRDNAKNTVYLQMYSLKPEDTAVYYCAARPGSWYPSVPSYNYWGQGTQVTVSS

Result:
1. high polyreactivity
2. low polyreactivity
3. high polyreactivity
4. low polyreactivity
5. low polyreactivity
